target: Transcription factor AP1 (Homo sapiens) (UniProt P05412+P01100); assay: Percent inhibition of transcription activator protein-1 (AP-1) in DNA binding assay at 100 uM; type: protein-complex assay
Residues, ends and D or L forms follow the SMILES beside them.
outcome measure: inhibition (%)
Answers are plain numbers, in %.

Working through the 5 molecules below one at a time, give inhibition for each.
1. CC(C)C[C@H](NC(=O)[C@H](CC(=O)O)NC(=O)[C@H](C)NC(=O)[C@H](CCC(N)=O)NC(=O)CN)C(=O)N[C@@H](C)C(=O)N[C@@H](CC(=O)O)C(=O)NCC(=O)O (H-GQADLADG-OH)
2. CC(C)C[C@H](NC(=O)[C@H](CCC(N)=O)NC(=O)CN)C(=O)N[C@@H](CC(=O)O)C(=O)N[C@@H](C)C(=O)N[C@@H](C)C(=O)N[C@@H](CC(=O)O)C(=O)NCC(=O)O (H-GQLDAADG-OH)
3. CC(C)C[C@H](NC(=O)[C@H](CC(=O)O)NC(=O)[C@H](CC(C)C)NC(=O)[C@H](CCC(N)=O)NC(=O)[C@H](C)N)C(=O)N[C@@H](C)C(=O)N[C@@H](CC(=O)O)C(=O)NCC(=O)O (H-AQLDLADG-OH)
4. CC(C)C[C@H](NC(=O)[C@H](CC(=O)O)NC(=O)[C@H](CC(C)C)NC(=O)[C@H](CCC(N)=O)NC(=O)CN)C(=O)N[C@@H](C)C(=O)N[C@@H](CC(N)=O)C(=O)NCC(=O)O (H-GQLDLANG-OH)
5. CC(C)C[C@H](NC(=O)[C@H](C)NC(=O)[C@H](CC(C)C)NC(=O)[C@H](CCC(N)=O)NC(=O)CN)C(=O)N[C@@H](C)C(=O)N[C@@H](CC(=O)O)C(=O)NCC(=O)O (H-GQLALADG-OH)

11
7
5
64
-1
